assay_system: T1, biotinylated goat anti-human kappa light chain
T1 construct: Positive control of the ELISA
experiment_description: ELISA; positive control; further: test concentration or dose not given here
assay_metric: optical density
In your response, the unit should come after the numeric value.

Use the examples below as a reference point.
Recorded optical density for 366_D02 (antibody, V domains shown, VH/VL only) VH: EVQLLESGGGLVQPGGSLRLSCAASGFTFSSYSMNWVRQAPGKGLEWVASINYNGGYTSYADSVKGRFTISRDNSKNTLYLQMNSLRAEDTAVYYCARSATWHDTHLDYWGQGTLVTVSS VL: DIQMTQSPSSLSASVGDRVTITCRASQSILSYVNWYQQKPGKAPKLLIYATTSLASGVPSRFSGSGSGTDFTLTISSLQPEDFATYYCQQSYDLPLTFGGGTKVEIK , please? 3.57 OD

Tell me the measured optical density of 372_D04 (antibody, V domains shown, VH/VL only) VH: EVQLLESGGGLVQPGGSLRLSCAASGFTFSSYSMNWVRQAPGKGLEWVANINYNSGYTGYADSVKGRFTISRDNSKNTLYLQMNSLRAEDTAVYYCARSATWHDTHLDYWGQGTLVTVSS VL: DIQMTQSPSSLSASVGDRVTITCRASQSILTYLNWYQQKPGKAPKLLIYAATSLHSGVPSRFSGSGSGTDFTLTISSLQPEDFATYYCQQSYDLPLTFGGGTKVEIK , please. 3.38 OD

Next item in the queue.
Look at this binder and give its reported optical density. 376_B04 (antibody, V domains shown, VH/VL only) VH: EVQLLESGGGLVQPGGSLRLSCAASGFTFDSYGMHWVRQAPGKGLEWVASINYNGGYTGYADSVKGRFTISRDNSKNTLYLQMNSLRAEDTAVYYCARSANWHDTALDYWGQGTLVTVSS VL: DIQMTQSPSSLSASVGDRVTITCRASQSIVSYVNWYQQKPGKAPKLVIYAATSRASGVPSRFSGSGSGTDFTLTISSLQPEDFATYYCQQSYDTPLTFGGGTKVEIK 3.58 OD

Origin of the recorded values: patent US20210380703A1
